Values compiled from patent US9527898B2.

# tested_system: human glucagon receptor (human, UniProt P47871)
# test_name: cell-based or functional assay
Non-standard residues stand in square brackets, D forms with d. No end group written: not given here. Aib = CC(C)(N)C(=O)O
experimental_readout: EC50 (nM), cAMP, CHO/GCGR
Use nM as the unit, but write only the number.

Task: Please give the measured EC50 (nM), cAMP, CHO/GCGR for this binder: Y[Aib]QGTFTSDYSKYLDEKRAKEFVQWLMNTC [oxyntomodulin derivative of SEQ ID NO. 31]
Result: 1

Task: Try this binder too: H[Aib]QGTFTSDYAKYLDEKRAKEFVQWLMNTC [oxyntomodulin derivative of SEQ ID NO. 30]
Result: 80.2
